Assay: Single dose pharmacokinetic study in beagle dog
Type: in vivo
Conditions: male, beagle, dog, plasma, iv, 0.5 mg/kg, male beagle dog, iv 0.5 mg/kg, 48 hr; read-out: Plasma level, Individual animals
result type: concentration at 48 h (ng/mL)

{"columns": ["input smiles", "result type", "unit spec", "test result"],
 "data": [
  ["Cc1cc(C(=O)O)nc(N2C[C@H]3C[C@@H](c4ccccc4C(F)(F)F)C[C@H]3C2)n1", "concentration at 48 h", "ng/mL", 92.8]
]}

---

Assay: Single dose pharmacokinetic study in beagle dog
Type: in vivo
Details: male, beagle, dog, plasma, po, 2 mg/kg, male beagle dog, po 2 mg/kg, 4 hr; read-out: Plasma level, Mean
result type: concentration at 4 h (ng/mL)

{"columns": ["input smiles", "test result"],
 "data": [
  ["Cc1cc(C(=O)O)nc(N2C[C@H]3C[C@@H](c4ccccc4C(F)(F)F)C[C@H]3C2)n1", 2140]
]}

---

Assay: Single dose pharmacokinetic study in beagle dog
Format: in vivo
Conditions: male, beagle, dog, plasma, iv, 0.5 mg/kg, male beagle dog, iv 0.5 mg/kg, 0.083 hr; read-out: Plasma level, Individual animals

{"columns": ["input smiles", "concentration at 0.083 h [ng/mL]"],
 "data": [
  ["Cc1cc(C(=O)O)nc(N2C[C@H]3C[C@@H](c4ccccc4C(F)(F)F)C[C@H]3C2)n1", 2660]
]}

---

Assay: Single dose pharmacokinetic study in beagle dog
Format: in vivo
Details: male, beagle, dog, plasma, po, 2 mg/kg, male beagle dog, po 2 mg/kg, 24 hr; read-out: Plasma level, Mean

{"columns": ["input smiles", "concentration at 24 h"],
 "data": [
  ["Cc1cc(C(=O)O)nc(N2C[C@H]3C[C@@H](c4ccccc4C(F)(F)F)C[C@H]3C2)n1", "383 ng/mL"]
]}

---

Test: Single dose pharmacokinetic study in cynomolgus monkey
Assay type: in vivo
Conditions: male, cynomolgus monkey, plasma, iv; Cyno, 1.0 mg kg^−1 i.v., mean ± SD, n=3
result type: AUC(0-t)

{"columns": ["input smiles", "result type", "test result"],
 "data": [
  ["Cc1cc(C(=O)O)nc(N2C[C@H]3C[C@@H](c4ccccc4C(F)(F)F)C[C@H]3C2)n1", "AUC(0-t)", "171 µg·h/mL"]
]}

---

Test: Single dose pharmacokinetic study in beagle dog
Type: in vivo
Settings: male, beagle, dog, plasma, iv, 0.5 mg/kg, male beagle dog, iv 0.5 mg/kg, 0.25 hr; read-out: Plasma level, Mean
result type: concentration at 0.25 h (ng/mL)

{"columns": ["input smiles", "result type", "test result"],
 "data": [
  ["Cc1cc(C(=O)O)nc(N2C[C@H]3C[C@@H](c4ccccc4C(F)(F)F)C[C@H]3C2)n1", "concentration at 0.25 h", 2080]
]}

---

Assay: Single dose pharmacokinetic study in cynomolgus monkey
Assay type: in vivo
Settings: male, cynomolgus monkey, plasma, iv, 1 mg/kg, non-human primate, iv 1.0 mg/kg, 1 hr; read-out: Plasma level, Mean
result type: concentration at 1 hr (ng/mL)

{"columns": ["input smiles", "result type", "test result"],
 "data": [
  ["Cc1cc(C(=O)O)nc(N2C[C@H]3C[C@@H](c4ccccc4C(F)(F)F)C[C@H]3C2)n1", "concentration at 1 hr", 9060]
]}

---

Experiment: Single dose pharmacokinetic study in cynomolgus monkey
Assay type: in vivo
Details: male, cynomolgus monkey, plasma, iv, 1 mg/kg, non-human primate, iv 1.0 mg/kg, 2 hr; read-out: Plasma level, Individual animals

{"columns": ["molecule", "concentration at 2 hr [ng/mL]"],
 "data": [
  ["Cc1cc(C(=O)O)nc(N2C[C@H]3C[C@@H](c4ccccc4C(F)(F)F)C[C@H]3C2)n1 [BPN-14136]", 8910]
]}

---

Assay: Single dose pharmacokinetic study in cynomolgus monkey
Assay type: in vivo
Settings: male, cynomolgus monkey, plasma, po, 5 mg/kg, non-human primate, po 5 mg/kg, 0.5 hr; read-out: Plasma level, Individual animals

{"columns": ["input smiles", "concentration at 0.5 h"],
 "data": [
  ["Cc1cc(C(=O)O)nc(N2C[C@H]3C[C@@H](c4ccccc4C(F)(F)F)C[C@H]3C2)n1", "28100 ng/mL"]
]}

---

Test: Single dose pharmacokinetic study in beagle dog
Assay type: in vivo
Conditions: male, beagle, plasma, iv; Dog, 0.5 mg kg^−1 i.v., mean ± SD, n=3; read-out: T1/2, apparent terminal half-life (converted)

{"columns": ["input smiles", "unit spec", "half-life"],
 "data": [
  ["Cc1cc(C(=O)O)nc(N2C[C@H]3C[C@@H](c4ccccc4C(F)(F)F)C[C@H]3C2)n1", "h", 2.6]
]}

---

Test: Single dose pharmacokinetic study in beagle dog
Assay type: in vivo
Details: male, beagle, dog, plasma, po, 2 mg/kg, male beagle dog, po 2 mg/kg, 8 hr; read-out: Plasma level, Mean

{"columns": ["input smiles", "concentration at 8 h"],
 "data": [
  ["Cc1cc(C(=O)O)nc(N2C[C@H]3C[C@@H](c4ccccc4C(F)(F)F)C[C@H]3C2)n1", "904 ng/mL"]
]}

---

Assay: Single dose pharmacokinetic study in beagle dog
Type: in vivo
Settings: male, beagle, dog, plasma, iv, 0.5 mg/kg, male beagle dog, iv 0.5 mg/kg, 36 hr; read-out: Plasma level, Individual animals
result type: concentration at 36 h (ng/mL)

{"columns": ["compound", "test result"],
 "data": [
  ["Cc1cc(C(=O)O)nc(N2C[C@H]3C[C@@H](c4ccccc4C(F)(F)F)C[C@H]3C2)n1 [BPN-14136]", 33.3]
]}

---

Experiment: Single dose pharmacokinetic study in beagle dog
Assay type: in vivo
Settings: male, beagle, dog, plasma, po, 2 mg/kg, male beagle dog, po 2 mg/kg, 2 hr; read-out: Plasma level, Mean
result type: concentration at 2 h

{"columns": ["input smiles", "result type", "test result"],
 "data": [
  ["Cc1cc(C(=O)O)nc(N2C[C@H]3C[C@@H](c4ccccc4C(F)(F)F)C[C@H]3C2)n1", "concentration at 2 h", "4120 ng/mL"]
]}

---

Assay: Single dose pharmacokinetic study in cynomolgus monkey
Assay type: in vivo
Settings: male, cynomolgus monkey, plasma, iv, 1 mg/kg, Cyno, 1.0 mg kg^−1 i.v., mean ± SD, n=3; read-out: Cmax, maximum observed concentration at first time point

{"columns": ["input smiles", "Cmax"],
 "data": [
  ["Cc1cc(C(=O)O)nc(N2C[C@H]3C[C@@H](c4ccccc4C(F)(F)F)C[C@H]3C2)n1", "11400 ng/mL"]
]}

---

Assay: Single dose pharmacokinetic study in beagle dog
Assay type: in vivo
Conditions: male, beagle, dog, plasma, iv, 0.5 mg/kg, male beagle dog, iv 0.5 mg/kg, 4 hr; read-out: Plasma level, Individual animals

{"columns": ["input smiles", "concentration at 4 h [ng/mL]"],
 "data": [
  ["Cc1cc(C(=O)O)nc(N2C[C@H]3C[C@@H](c4ccccc4C(F)(F)F)C[C@H]3C2)n1", 442]
]}

---

Assay: Single dose pharmacokinetic study in beagle dog
Assay type: in vivo
Details: male, beagle, dog, plasma, iv, 0.5 mg/kg, male beagle dog, iv 0.5 mg/kg, 2 hr; read-out: Plasma level, Individual animals

{"columns": ["compound", "unit spec", "concentration at 2 h"],
 "data": [
  ["Cc1cc(C(=O)O)nc(N2C[C@H]3C[C@@H](c4ccccc4C(F)(F)F)C[C@H]3C2)n1 [BPN-14136]", "µg/mL", 1.02]
]}

---

Experiment: Single dose pharmacokinetic study in cynomolgus monkey
Format: in vivo
Conditions: male, cynomolgus monkey, plasma, po, 5 mg/kg, non-human primate, po 5 mg/kg, 2 hr; read-out: Plasma level, Mean
result type: concentration at 2 hr (ng/mL)

{"columns": ["input smiles", "result type", "test result"],
 "data": [
  ["Cc1cc(C(=O)O)nc(N2C[C@H]3C[C@@H](c4ccccc4C(F)(F)F)C[C@H]3C2)n1", "concentration at 2 hr", 31200]
]}

---

Experiment: Single dose pharmacokinetic study in beagle dog
Type: in vivo
Conditions: male, beagle, dog, plasma, po, 2 mg/kg, male beagle dog, po 2 mg/kg, 8 hr; read-out: Plasma level, Individual animals

{"columns": ["input smiles", "unit spec", "concentration at 8 h"],
 "data": [
  ["Cc1cc(C(=O)O)nc(N2C[C@H]3C[C@@H](c4ccccc4C(F)(F)F)C[C@H]3C2)n1", "ng/mL", 855]
]}

---

Assay: Single dose pharmacokinetic study in beagle dog
Type: in vivo
Details: male, beagle, dog, plasma, po, 2 mg/kg, male beagle dog, po 2 mg/kg, 10 hr; read-out: Plasma level, Mean

{"columns": ["input smiles", "unit spec", "concentration at 10 h"],
 "data": [
  ["Cc1cc(C(=O)O)nc(N2C[C@H]3C[C@@H](c4ccccc4C(F)(F)F)C[C@H]3C2)n1", "ng/mL", 559]
]}

The reported numbers originate from paper PMC6980506.
